Taken from PubChem BioAssay (NCI).

Tested on: HCT-15 colon
procedure summary: NCI tumour cell line growth inhibition, 48 h
Catalogue of TGI values
value type: TGI

> print(dat)
                                    compound  value.type  reported.result
 1  O=C1NC(=NCCc2cccc(F)c2)S/C1=C\c1ccc2ncccc2c1         TGI          > 25 µM
 2  O=C(NC(=O)c1ccccc1[N+](=O)[O-])Nc1ccc(Oc2ncc(Br)cn2)c(Cl)c1         TGI        > 42.7 µM
 3     COc1ccc2c(c1)/C(=C/CCN(C)C)c1ccccc1S2         TGI         > 100 µM
 4  O=[N+]([O-])c1ccc2c(c1)c(OCc1ccccc1)nn2Cc1ccccc1         TGI         > 100 µM
 5       NS(=O)(=O)c1ccc2c(c1)OCCOCCOCCOCCO2         TGI         > 100 µM
 6  CCCC1C(=O)CCc2c(OC)ccc(OC)c21 (stereo unspecified)         TGI         > 100 µM
 7  N#CCCC1C(C#N)C2(Cl)CC1(Cl)C(Cl)=C2Cl (stereo unspecified)         TGI          > 10 µM
 8  CCC[CH2][Sn]([CH2]CCC)([S]c1cccc2cccnc12)[S]c1cccc2cccnc12         TGI         0.411 µM
 9       Fc1ccc(NC(=S)SCc2ccc3c(c2)OCO3)cc1F         TGI          34.5 µM
10  COc1cc2c(c(OC)c1OC)-c1ccc(NNC(N)=S)c(=O)cc1[C@@H](NC(C)=O)CC2         TGI         > 100 µM
11                  O=C1CCCSC(=O)N1Cc1ccccc1         TGI         > 100 µM
12   COc1cc2cc(OC)c3cc4c(cc3c2c(OC)c1OC)OCO4         TGI        > 51.1 µM
13  c1ccc(-c2nc(-c3ccccc3SSc3ccccc3-c3nc(-c4ccccc4)nn3-c3ccccc3)n(-c3ccccc3)n2)cc1         TGI         > 100 µM
14  Cc1ccc(CN2CCC(C(=O)Nc3ccc(-c4cc5ccccc5[nH]4)cc3)CC2)o1         TGI         > 100 µM
15  O=C(N/N=C(/COc1ccc(Cl)cc1)N=Cc1ccncc1)c1ccncc1         TGI         > 100 µM
16       ClCCN1CCC2(CC1)SSC1(CCN(CCCl)CC1)S2         TGI         > 100 µM
17  FC(F)(F)c1cccc(Nc2nc(-c3ccccc3)nc3ncccc23)c1         TGI          23.7 µM
18  Cc1c(C(=O)CC(=O)C(=O)Nc2ccccc2C(F)(F)F)[n+](=O)c2ccccc2n1[O-]         TGI          44.4 µM
19  Cc1cc(-c2nc(C(=O)Nc3cc4oc(N5CCOCC5)nc4nc3N3CC[C@@H](O)C3)co2)ccn1         TGI         > 100 µM
20  O=C1C=CC(=O)c2c1ccc1c3ccccc3n(CCCCCCCCCCCCn3c4ccccc4c4ccc5c(c43)C(=O)C=CC5=O)c21         TGI         > 100 µM
21  CCOC1Oc2ccccc2C(=O)/C1=C/Nc1ccc(C(C)=O)cc1 (stereo unspecified)         TGI          46.3 µM
